Biological target: Rgg144 (recombinant, Streptococcus pneumoniae D39, SPD_0144) (Streptococcus pneumoniae D39)
Test: fluorescence polarisation
No end group written: not given here.
Item-by-item account of Kd
Reply with just the number (in µM).

# annotated cases, reported Kd shown
>>> value("SEWVIVIPFLTNA (also: FITC label, position not given here) [FITC-labeled SHP144 L26A]")
3.4
>>> value("SEWVIVIPFLTAL (also: FITC label, position not given here) [FITC-labeled SHP144 N25A]")
3.3

Okay, next one:
Q. Any idea what Kd was measured for SEWVIAIPFLTNL (also: FITC label, position not given here) [FITC-labeled SHP144 V19A] ?
A. 4

FYI, the data here is from paper PMC9233744.
